Origin of measurements: BigSolDB 2.1

Conditions: in water, 308.15 K
property: solubility (mole fraction)
Answers are plain numbers.

Q: Can you share its solubility (mole fraction)? I mean this molecule: Cc1cnc(C(=O)O)c[n+]1[O-]
Ans: 0.00426

----------
Conditions: in water, 318.15 K
property: solubility (mole fraction)
One number for each entry.

Q: Can you share its solubility (mole fraction)? I mean this molecule: Cc1cnc(C(=O)O)c[n+]1[O-]
Ans: 0.00579

----------
Conditions: in methanol, 298.15 K
property: solubility (mole fraction)
Give bare numbers.

Q: Can you share its solubility (mole fraction)? I mean this compound: Cc1cnc(C(=O)O)c[n+]1[O-]
Ans: 0.00328

----------
Conditions: in water, 293.15 K
property: solubility (mole fraction)
Answers are plain numbers.

Q: Can you share its solubility (mole fraction)? I mean this compound: Cc1cnc(C(=O)O)c[n+]1[O-]
Ans: 0.00265
